Ref: patent US12617752B2

assay: Encapsulation efficiency of lipid nanoparticles (Quant-it RiboGreen RNA Assay); format: physicochemical; conditions: lipid nanoparticles with luciferase mRNA
Please provide measured Encapsulation efficiency (%) for the entries that follow.
Numbers only, in %.

Example entries and their recorded answers appear below.
Compound: CCCCCCCCCC(=O)OCCCC(C)(C)CCCN(CCCCO)CCCCCCC(=O)OCCCC(CCCCCC)CCCCCC [94b]
Encapsulation efficiency (%): 93.55
--
Compound: CCCCCCCCCCCOC(=O)OCCCCCCN(CCO)CCCCCCC(C)(C)C(=O)OC(CCCCCCCCCC)CCCCCCCCCC [49a]
Encapsulation efficiency (%): 94.85
--
Compound: CCCCCCCCCOC(=O)OCCCCCCN(CCO)CCCCCCC(C)(C)C(=O)OCCC(CCCCCC)CCCCCC [34a]
Encapsulation efficiency (%): 95.73

For every listed record, write down its Encapsulation efficiency (%).
1. CCCCCCCCCC(=O)OCCC(C)(C)CCCCCN(CCO)CCCCCCC(=O)OCCC(CCCCCCCC)CCCCCCCC [108b]
2. CCCCCCCCCOC(=O)CCCCC(C)(C)CCN(CCCCCCCC(=O)OCC(CCCCCCC)CCCCCCC)C(=O)SCCCN(C)C [61a]
3. CCCCCCCCCOC(=O)OCCCCCCN(CCCO)CCCCCCC(C)(C)C(=O)OC(CCCCCCCC)CCCCCCCC [32a]
4. CCCCCCCCCC(=O)OCC(C)(C)CCCCCN(CCO)CCCCCCC(=O)OCCC(CCCCCCC)CCCCCCC [68b]
5. CCCCCCCCCC(=O)OCC(C)(C)CCCCCN(CCCCCCOC(=O)OCC(CCCCCCC)CCCCCCC)C(=O)SCCCN(C)C [47b]

1: 94.16; 2: 95.87; 3: 83.51; 4: 96.31; 5: 97.27

====

assay: Particle size and PDI of lipid nanoparticles by dynamic light scattering; assay type: physicochemical; conditions: lipid nanoparticles with luciferase mRNA; ionizable lipid/cholesterol/DSPC/DMG-PEG2000 50/38.5/10/1.5 mol%
Observation Type: Particle size (nm)
Numbers only, in nm.

Look over these answered cases.
Compound: CCCCCCCCCCC(=O)OCC(C)(C)CCCCCN(CCCO)CCCCCCCCC(=O)OCC(CCCCCCC)CCCCCCC [79b]
Value Reported: 99.27
//
Compound: CCCCCCCCCOC(=O)C(C)(C)CCCCCCN(CCO)CCCCCCOC(=O)OCCCCC(CCCC)CCCC [43a]
Value Reported: 105.63
//
Compound: CCCCCCCCC(CCCCCCCC)OC(=O)C(C)(C)CCCCCCN(CCO)CCCCCC(=O)OCCCCCCCCCC(C)C [21a]
Value Reported: 110.00
//
Compound: CCCCCCCCCC(=O)OCC(C)(C)CCCCCN(CCO)CCCCCCCC(=O)OC(CCCCCCCCC)CCCCCCCCC [51b]
Value Reported: 91.96
//
Compound: CCCCCCCCCOC(=O)OCCCCCCCN(CCCCO)CCCCCC(C)(C)COC(=O)CC(CCCCCCC)CCCCCCC [32b]
Value Reported: 116.50

Required: Particle size (nm), one value per compound below.
1. CCCCCC#CCCOC(=O)CCCCCCCN(CCO)CCCCCCC(C)(C)C(=O)OC(CCCCCCCC)CCCCCCCC [55a]
2. CCCCCCCCCOC(=O)OCCCCCCN(CCO)CCCCC(C)(C)CCC(=O)OCC(CCCCCCC)CCCCCCC [44a]
3. CCCCCCCCCC(=O)OCC(C)(C)CCCCCN(CCCCCCCC(=O)OC(CCCCCCCC)CCCCCCCC)C(=O)SCCCCN(C)C [38b]
4. CCCCCCCCCOC(=O)CCCCC(C)(C)CCN(CCO)CCCCCC(=O)OCC(CCCCCCCCC)CCCCCCCCC [69a]
5. CCCCCCC#CCOC(=O)CCCCCCCN(CCO)CCCCCCC(C)(C)C(=O)OC(CCCCCCCC)CCCCCCCC [54a]
6. CCCCCCCCCCCC(=O)OCC(C)(C)CCCCCN(CCCO)CCCCCCCCC(=O)OCC(CCCCCCCC)CCCCCCCC [88b]

[126.17, 92.67, 102.50, 107.20, 87.37, 98.16]

// for each compound in input: emit Particle size (nm)
1. CCCCCCCCCCC(=O)OCC(C)(C)CCCCCN(CCCCO)CCCCCCC(=O)OCC(CCCCCCCCC)CCCCCCCCC [78b]
2. CCCCCCCCCCCOC(=O)CCCCCN(CCO)CCCCCC(C)(C)CC(=O)OC(CCCCCCCC)CCCCCCCC [19a]
3. CCCCCCCCCCOC(=O)OCCCCCCN(CCO)CCCCCC(C)(C)COC(=O)CCC(CCCCCC)CCCCCC [26b]
4. CCCCCCCCCCOC(=O)OCCCCCCN(CCO)CCCCCCC(C)(C)C(=O)OC(CCCCCCCCC)CCCCCCCCC [48a]
5. CCCCCCCCCCCOC(=O)CCCCCN(CCO)CCCCCCC(C)(C)C(=O)OC(CCCCCCCC)CCCCCCCC
6. CCCCCCCC(CCCCCCC)COC(=O)CCCCCCCN(CCO)CCCCCC(C)(C)COC(=O)CC(CCCCCCC)CCCCCCC [65b]
7. CCCCCCCCCOC(=O)OCCCCCCCN(CCO)CCCCCC(C)(C)COC(=O)CC(CCCCCCC)CCCCCCC [29b]

1. 98.88
2. 109.37
3. 113.77
4. 81.22
5. 89.72
6. 80.60
7. 112.43
